protocol-text: melting temperature; fluorescence melt of hairpins on a sequencing array, two-state fit, raised by 9.35 °C to match UV melts
condition-set: sodium 0.088 M
value-type: Tm (°C)
Reply with just the number (in °C).

Reference set (2 entries):
In plain terms, GTTGGCCGAAAGGCTAAC (((.(((....))).))) has a documented Tm of 58.3

In plain terms, GACATACGAAAGTAGGTC (((.(((....))).))) has a documented Tm of 52.7

Others:
In plain terms, GGCAGTCCGAAAGGAGCC (((..(((....)))))) has a documented Tm of 47.4

In plain terms, GACAACGGAAACGTTGCC (.(((((....))))).) has a documented Tm of 44.9

In plain terms, GTTGTGAAAACAAC (((((....))))) has a documented Tm of 50.5

In plain terms, GTGTGACGAAAGTCCCAC (((.(((....))).))) has a documented Tm of 50.5

In plain terms, GGTATGGAAACATACC ((((((....)))))) has a documented Tm of 53.4

In plain terms, GGTATAGGAAACTATATC (.(((((....))))).) has a documented Tm of 31.2

In plain terms, GATCCTATTCAGGATC ((((((....)))))) has a documented Tm of 52.6
